Provenance of the data: patent US20220119513A1

# testSystem: T1, TGFβ1 (R&D Systems)
# T1 construct: also called TGFB1
# T1 sequence (P01137 279-390): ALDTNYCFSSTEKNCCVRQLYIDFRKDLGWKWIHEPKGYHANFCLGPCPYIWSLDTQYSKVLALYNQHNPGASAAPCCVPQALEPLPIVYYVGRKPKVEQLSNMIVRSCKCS
# assayOverview: single point SPR
Each entry below carries its recorded Kd.
metricName: Kd (nM)

{"columns": ["binder", "measurementUnit", "result"],
 "data": [
  ["Can-SL501-VH3 P109S / Can-SL501-VL2 (antibody, V domains shown) VH: EVQLVESGGDLVKPGGSLRLSCVASGFTFSSYGMHWVRQAPGKELEWVAVISYDGSIKYYADAVKGRFTISRDNAKNTLYLQMNSLRAEDTAVYYCARTGEYSGYDTDSQYSWGQGTTVTVSS VL: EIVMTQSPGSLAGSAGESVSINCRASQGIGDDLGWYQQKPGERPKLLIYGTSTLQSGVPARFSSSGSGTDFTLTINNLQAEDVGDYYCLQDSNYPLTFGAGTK", "nM", 4.97],
  ["Can-SL501-VH3 S112Q / Can-SL501-VL2 (antibody, V domains shown) VH: EVQLVESGGDLVKPGGSLRLSCVASGFTFSSYGMHWVRQAPGKELEWVAVISYDGSIKYYADAVKGRFTISRDNAKNTLYLQMNSLRAEDTAVYYCARTGEYSGYDTDPQYQWGQGTTVTVSS VL: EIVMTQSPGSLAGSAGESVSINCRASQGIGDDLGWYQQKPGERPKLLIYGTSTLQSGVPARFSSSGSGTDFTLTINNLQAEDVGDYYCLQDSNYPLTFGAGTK", "nM", 4.8],
  ["Can-SL501-VH3 D108T / Can-SL501-VL2 (antibody, V domains shown) VH: EVQLVESGGDLVKPGGSLRLSCVASGFTFSSYGMHWVRQAPGKELEWVAVISYDGSIKYYADAVKGRFTISRDNAKNTLYLQMNSLRAEDTAVYYCARTGEYSGYDTTPQYSWGQGTTVTVSS VL: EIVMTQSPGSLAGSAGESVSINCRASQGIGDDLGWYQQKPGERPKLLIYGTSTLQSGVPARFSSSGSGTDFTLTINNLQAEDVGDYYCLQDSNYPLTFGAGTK", "nM", 0.798]
]}
